The reported numbers originate from PubChem BioAssay AID2060489.

system: 922993-354-T-J3-PDC complex spheroids, viability; assay: Anticancer human tumor 922993-354-T-J3-PDC patient-derived endometrial carcinoma cell line growth inhibition [GQUAD]; settings: second compound 0.316 µM; first compound 10 µM; active means viability on the fitted dose curve at most 10% of control; inactive means the rest
I would appreciate it if you answered using one of these outcomes: active, inactive

Would you please look over these solved cases?
Compound	Class Name
CC(=O)O[C@H]1C(=O)[C@@]2(C)[C@H]([C@H](OC(=O)c3ccccc3)[C@]3(O)C[C@H](OC(=O)[C@H](O)[C@@H](NC(=O)c4ccccc4)c4ccccc4)C(C)=C1C3(C)C)[C@]1(OC(C)=O)CO[C@@H]1C[C@@H]2O + CN(C)c1ccc(Nc2c3ccc(NC(=O)CCN4CCCC4)cc3nc3cc(NC(=O)CCN4CCCC4)ccc23)cc1	inactive
O=C(NO)c1cnc(N2CCN(S(=O)(=O)c3ccc4ccccc4c3)CC2)nc1 + Cc1[nH]c2ccc(F)cc2c1-c1nc2c3cccnc3c3ncccc3c2[nH]1	active
CC(C)n1c(=O)n(C)c2cnc3cc(F)c(-c4ccc(OCCCN5CCCCC5)nc4)cc3c21 + Cc1cnc(CNC(=O)c2c(=O)c3ccc(N4CCCN(C)CC4)nc3n3c2sc2ccccc23)cn1	inactive
CC(C)n1c(=O)n(C)c2cnc3cc(F)c(-c4ccc(OCCCN5CCCCC5)nc4)cc3c21 + Cc1[nH]c2ccc(F)cc2c1-c1nc2c3cccnc3c3ncccc3c2[nH]1	inactive

Next compound, please.
Prompt: Assay result, entry COc1cccc2c1C(=O)c1c(O)c3c(c(O)c1C2=O)CC(O)(C(=O)CO)CC3OC1CC(N)C(O)C(C)O1 (stereo not given) + Cc1cnc(CNC(=O)c2c(=O)c3ccc(N4CCCN(C)CC4)nc3n3c2sc2ccccc23)cn1 — outcome?
Response: inactive

---

tested on: 922993-354-T-J3-PDC complex spheroids, viability; experiment: Anticancer human tumor 922993-354-T-J3-PDC cell line growth inhibition [GQUAD]; conditions: second compound 0.316 µM; first compound 10 µM; stronger effect = lower value;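 further: spheroids exposed to compounds for seven days; 100% = DMSO vehicle control viability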
The following molecules are shown together with reported viability, T/C values.

Prompt: Give recorded viability, T/C. CC1COCCN1c1cc(-c2ccnn2C)c2ccnc(-c3ccn[nH]3)c2n1 (stereo not drawn) + Cc1cnc(CNC(=O)c2c(=O)c3ccc(N4CCCN(C)CC4)nc3n3c2sc2ccccc23)cn1
Response: 20.9%

Prompt: Quote viability, T/C reported for CC1COCCN1c1cc(-c2ccnn2C)c2ccnc(-c3ccn[nH]3)c2n1 (stereo not drawn) + Cc1[nH]c2ccc(F)cc2c1-c1nc2c3cccnc3c3ncccc3c2[nH]1 please.
Response: 16.5%

Prompt: Indicate its recorded viability, T/C; the molecule in question is COc1ccc([C@@H](O)c2cc(-c3ncnc4cc(N5CCOCC5)ccc34)c(F)cc2Cl)nn1 + Cc1cnc(CNC(=O)c2c(=O)c3ccc(N4CCCN(C)CC4)nc3n3c2sc2ccccc23)cn1
Response: 38.1%

---

tested on: 922993-354-T-J3-PDC complex spheroids, viability; assay: Anticancer human tumor 922993-354-T-J3-PDC cell line growth inhibition [GQUAD]; details: second compound 0.316 µM; first compound 0.316 µM; stronger effect = lower value;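 further: spheroids exposed to compounds for seven days; 100% = DMSO vehicle control viability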
Reported viability, T/C by item:
Expressed in %, but write only the number.

Molecule	Readout Units	Measured Number
CC(C)(O)C1CCC(Nc2ccc3ncc(-c4cccc(C(F)(F)F)c4)n3n2)CC1 (stereo not given) + Cc1cnc(CNC(=O)c2c(=O)c3ccc(N4CCCN(C)CC4)nc3n3c2sc2ccccc23)cn1	%	48.4
C=CC(=O)N1CCN(c2nc(=O)n(-c3c(C)ccnc3C(C)C)c3nc(-c4c(O)cccc4F)c(F)cc23)C(C)C1 (stereo not given) + CN(C)c1ccc(Nc2c3ccc(NC(=O)CCN4CCCC4)cc3nc3cc(NC(=O)CCN4CCCC4)ccc23)cc1	%	96.7

Prompt: Give a short answer stating reported viability, T/C for CC[C@@]1(O)C(=O)OCc2c1cc1n(c2=O)Cc2cc3c(CN(C)C)c(O)ccc3nc2-1 + CN(C)c1ccc(Nc2c3ccc(NC(=O)CCN4CCCC4)cc3nc3cc(NC(=O)CCN4CCCC4)ccc23)cc1 .
Response: 46.2

Prompt: Given the molecule CC[C@@]1(O)C(=O)OCc2c1cc1n(c2=O)Cc2cc3c(CN(C)C)c(O)ccc3nc2-1 + Cc1[nH]c2ccc(F)cc2c1-c1nc2c3cccnc3c3ncccc3c2[nH]1 , write its reported viability, T/C.
Response: 52.4
